Test system: Saccharomyces cerevisiae
methodDescription: protein stability index of tFT-peptide fusion in deletion strain of DAS1 (PSI (0-1 scale)); higher = more stable (slower turnover)
observable: protein stability index

As a guide, the following entries are already answered.
What does the data say about its protein stability index? Entry: "ILIQPLPVQFLN"
0.59

Now the sequence "ARWRVGLRRGAS"
0.683

Could you do the same for "RLIQFLPVQFLN" , please?
0.539

# repeat for "LVVYLSCVACVN"
0.0193

Now give it for "PDKRNHLIKILN" too.
0.663

Others:
Tell me the measured protein stability index of "PSLAASFWRSVG" , please.
0.699

Further, for "FSMRWTFRYWQN" ?
0.614

What do we get for "MVVYLSCVACIN" ?
0.0769

Quick one: "KKRKKGQKQKIN"
0.571

Also "ARWRVGLWRGRS" , if possible.
0.679

====

Tested on: Saccharomyces cerevisiae
methodDescription: protein stability index of tFT-peptide fusion (C-terminal peptide) (PSI (0-1 scale)); higher = more stable (slower turnover)
conditionContext: genetic background: das1 deletion; temperature: 30 C
observable: protein stability index
// return just the number, without any unit appended

Field: example entries. Status: answers known.
protein stability index for DSDADIEELLEE [PGA2 C-terminal 12 aa] ?
0.696

Please do the same for YPFTISYISPPY [YPR169W-A C-terminal 12 aa] as well.
0.71

Likewise for RKEVIDALVSLS [AIM46 C-terminal 12 aa] ?
0.701

***
Please look up its protein stability index: SPPEEESQHGDV [SHB17 C-terminal 12 aa]
0.696

====

Tested on: Saccharomyces cerevisiae
methodDescription: protein stability index of tFT-peptide fusion (C-terminal peptide) (PSI (0-1 scale)); higher = more stable (slower turnover)
conditionContext: genetic background: wild type; temperature: 30 C
observable: protein stability index
API doc: respond with a numeric literal and nothing else, no unit.

Returns the measured protein stability index for the input sequence. Input: "RNRAGHVGCYGL"
0.699

Another: "RRIGKTFLSLNI"
0.709

Moving on to "PSPSPNALALLR"
0.714

Please give the result for "RGRDLSLCQFFY" too.
0.736

How about this sequence: "YSLPPAPQPLPP"
0.772

***
For "CVLVLLLRLAFL" , what is its reported protein stability index?
0.488

Now the sequence "KKKKKNSRKKQQ"
0.711

Note, next up: "SFLTPFLLSYAT"
0.636

====

Test system: Saccharomyces cerevisiae
methodDescription: protein stability index of tFT-peptide fusion (C-terminal peptide) (PSI (0-1 scale)); higher = more stable (slower turnover)
conditionContext: genetic background: wild type; temperature: 30 C
observable: protein stability index
Answer with the value's number alone.

Entry under review: "LKRSDFSFLEKV" . Reported protein stability index?
0.701

Try the sequence "GGPGVKRPAMDP"
0.688

And for "GRVGLRGRPGPP" ?
0.716

Now consider "GVMASLVRMSQG" and answer again.
0.679

---
Fill in: protein stability index of "SSFRASVRSRKT" is ___
0.692

====

Reported protein stability index values for a set of sequences
Tested on: Saccharomyces cerevisiae
methodDescription: protein stability index of tFT-peptide fusion (C-terminal peptide) (PSI (0-1 scale)); higher = more stable (slower turnover)
conditionContext: genetic background: wild type; temperature: 30 C
The answer should be written as a number, with no unit following it.

Please review the entries below; each comes with its answer.
Param item = "LSTHAPPTRLRL" ; retrieve measured protein stability index.
0.677

Continue with "KSPYNTPLSLVL"
0.672

Another sequence to look at: "GVQCLVFIGRPK"
0.69

Same question for "SGYSTRPLSSRS" please.
0.723

Can you check "FFCLFCLSCWVL" next?
0.436

More entries:
For the sequence shown here, "ISLVMLLKDAWR" , give the reported protein stability index.
0.695

What do we get for "LRECRSWGGAAG" ?
0.653
